Reference for the values: paper PMC6005348

assay: Plasma pharmacokinetics of betahistine and 2-PAA after oral dosing in UVN cats (LC-MS/MS, non-compartmental analysis); assay type: in vivo, cat; settings: male, plasma, po, 2 mg/kg, UVN cats, oral betahistine 2 mg/kg alone, day 21
Outcome Measure: Tmax (min)
Please reply with the bare figure in min and do not write the unit itself.

Ask | Item `CNCCc1ccccn1` : provide Tmax
Reply | 30

###

assay: Plasma pharmacokinetics of betahistine and 2-PAA after oral dosing in UVN cats (LC-MS/MS, non-compartmental analysis); type: in vivo, cat; details: male, plasma, po, 0.2 mg/kg, UVN cats, oral betahistine 0.2 mg/kg alone, day 21, n = 2; read-out: Betahistine t1/2 (converted)
Outcome Measure: half-life
Put your answer as a value accompanied by its unit after it.

Ask | Item `CNCCc1ccccn1` : provide half-life
Reply | 4 h

###

assay: Plasma pharmacokinetics of betahistine and 2-PAA after oral dosing in UVN cats (LC-MS/MS, non-compartmental analysis); type: in vivo, cat; settings: male, plasma, po, UVN cats, oral betahistine 0.2 mg/kg plus selegiline 1 mg/kg, day 1; read-out: Betahistine AUC
Outcome Measure: AUC (ng·h/mL)
Please reply with the bare figure in ng·h/mL and do not write the unit itself.

Ask | Item `CNCCc1ccccn1` : provide AUC
Reply | 26.7

###

assay: Plasma pharmacokinetics of betahistine and 2-PAA after oral dosing in UVN cats (LC-MS/MS, non-compartmental analysis); assay type: in vivo, cat; settings: male, plasma, po, 0.2 mg/kg, UVN cats, oral betahistine 0.2 mg/kg alone, day 1; read-out: Betahistine AUC
Outcome Measure: AUC (ng·h/mL)
Please reply with the bare figure in ng·h/mL and do not write the unit itself.

Ask | Item `CNCCc1ccccn1` : provide AUC
Reply | 3.7

###

assay: Plasma pharmacokinetics of betahistine and 2-PAA after oral dosing in UVN cats (LC-MS/MS, non-compartmental analysis); format: in vivo, cat; details: male, plasma, po, UVN cats, oral betahistine 0.2 mg/kg plus selegiline 1 mg/kg, day 21; read-out: Betahistine Cmax
Outcome Measure: Cmax (ng/mL)
Please reply with the bare figure in ng/mL and do not write the unit itself.

Ask | Item `CNCCc1ccccn1` : provide Cmax
Reply | 13.2

###

assay: Plasma pharmacokinetics of betahistine and 2-PAA after oral dosing in UVN cats (LC-MS/MS, non-compartmental analysis); type: in vivo, cat; conditions: male, plasma, po, UVN cats, oral betahistine 0.2 mg/kg plus selegiline 1 mg/kg, day 21
Outcome Measure: Tmax (h)
Please reply with the bare figure in h and do not write the unit itself.

Ask | Item `CNCCc1ccccn1` : provide Tmax
Reply | 1

###

assay: Plasma pharmacokinetics of betahistine and 2-PAA after oral dosing in UVN cats (LC-MS/MS, non-compartmental analysis); assay type: in vivo, cat; details: male, plasma, po, 0.2 mg/kg, UVN cats, oral betahistine 0.2 mg/kg alone, day 21; read-out: Betahistine Cmax
Outcome Measure: Cmax (ng/mL)
Please reply with the bare figure in ng/mL and do not write the unit itself.

Ask | Item `CNCCc1ccccn1` : provide Cmax
Reply | 0.6
